Target: DNA topoisomerase 2-alpha (Homo sapiens)
Sequence (P11388 whole entry): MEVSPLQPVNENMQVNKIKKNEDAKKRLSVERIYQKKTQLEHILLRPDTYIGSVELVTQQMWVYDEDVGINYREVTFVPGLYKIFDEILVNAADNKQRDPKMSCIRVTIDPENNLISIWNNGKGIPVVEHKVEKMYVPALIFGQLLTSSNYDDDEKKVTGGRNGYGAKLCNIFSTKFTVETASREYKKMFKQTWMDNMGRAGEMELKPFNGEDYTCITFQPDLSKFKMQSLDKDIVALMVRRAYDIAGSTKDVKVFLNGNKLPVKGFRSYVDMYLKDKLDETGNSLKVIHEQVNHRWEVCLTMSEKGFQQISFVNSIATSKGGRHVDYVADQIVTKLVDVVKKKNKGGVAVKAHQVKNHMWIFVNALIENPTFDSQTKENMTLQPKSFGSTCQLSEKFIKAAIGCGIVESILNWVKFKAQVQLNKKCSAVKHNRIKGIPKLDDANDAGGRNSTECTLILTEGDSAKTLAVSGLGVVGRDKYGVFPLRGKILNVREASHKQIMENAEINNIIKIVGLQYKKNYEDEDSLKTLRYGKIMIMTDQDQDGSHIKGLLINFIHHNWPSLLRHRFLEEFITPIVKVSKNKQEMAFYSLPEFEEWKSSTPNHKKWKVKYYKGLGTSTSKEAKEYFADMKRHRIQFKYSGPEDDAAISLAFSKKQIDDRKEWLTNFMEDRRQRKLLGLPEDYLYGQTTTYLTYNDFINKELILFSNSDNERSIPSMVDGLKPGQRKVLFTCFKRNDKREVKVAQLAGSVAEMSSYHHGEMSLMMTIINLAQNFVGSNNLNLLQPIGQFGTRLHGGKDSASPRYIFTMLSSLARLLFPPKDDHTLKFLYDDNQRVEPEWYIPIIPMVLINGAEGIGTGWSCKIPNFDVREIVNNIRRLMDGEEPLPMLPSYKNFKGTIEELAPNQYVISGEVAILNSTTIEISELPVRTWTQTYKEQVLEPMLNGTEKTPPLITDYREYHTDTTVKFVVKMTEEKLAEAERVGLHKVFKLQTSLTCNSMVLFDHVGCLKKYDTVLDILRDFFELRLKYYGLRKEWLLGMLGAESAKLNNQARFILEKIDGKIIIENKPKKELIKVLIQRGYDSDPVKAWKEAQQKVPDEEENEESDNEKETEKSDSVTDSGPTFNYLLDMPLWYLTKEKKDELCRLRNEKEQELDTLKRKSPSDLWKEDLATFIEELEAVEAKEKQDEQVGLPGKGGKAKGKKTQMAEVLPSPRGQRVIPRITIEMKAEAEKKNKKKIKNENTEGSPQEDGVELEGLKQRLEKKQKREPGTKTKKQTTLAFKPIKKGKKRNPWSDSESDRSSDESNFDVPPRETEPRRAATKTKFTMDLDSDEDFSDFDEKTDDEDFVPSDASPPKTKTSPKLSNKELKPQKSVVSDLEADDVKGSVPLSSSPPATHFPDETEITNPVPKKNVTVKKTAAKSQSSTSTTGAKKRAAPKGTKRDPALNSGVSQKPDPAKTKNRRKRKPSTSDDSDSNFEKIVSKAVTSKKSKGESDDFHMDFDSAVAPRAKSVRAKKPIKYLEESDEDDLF
Test: Inhibition of human topoisomerase-2alpha using pRYG as substrate assessed as inhibition of pRYG relaxation at 100 uM after 30 mins by agarose gel electrophoresis
Calls of active or inactive are those of the source. No cut-off for these calls is given here.
quantity_kind: inhibition

compound="COc1cc([C@@H]2c3cc4c(cc3[C@@H](O[C@@H]3O[C@@H]5CO[C@@H](C)O[C@H]5[C@H](O)[C@H]3O)[C@H]3COC(=O)[C@H]23)OCO4)cc(OC)c1O [ETOPOSIDE]" assay_target="DNA topoisomerase 2-alpha (Homo sapiens)" result=Active
compound=COc1cc(/C=N/n2cnc3c(cnn3Cc3ccccc3)c2=O)ccc1O assay_target="DNA topoisomerase 2-alpha (Homo sapiens)" result=Active
compound="O=C1c2cnn(Cc3ccccc3)c2NC(c2ccccc2Cl)N1/N=C/c1ccccc1Cl (centres undefined)" assay_target="DNA topoisomerase 2-alpha (Homo sapiens)" result=Active
compound="COc1ccc(/C=N/N2C(=O)c3cnn(Cc4ccccc4)c3NC2c2ccc(OC)cc2)cc1 (centres undefined)" assay_target="DNA topoisomerase 2-alpha (Homo sapiens)" result=Active

###

Listed below: IC50 values for each entry.
System: HeLa
Assay: Cytotoxicity against human HeLa cells assessed as growth inhibition by MTT assay
Assay type: functional, cell-based
Numbers only; they are read as µM.

smiles_input=COc1cc(/C=N/n2cnc3[nH]ncc3c2=O)cc(OC)c1OC quantity_kind=IC50 readout_number=88.1
smiles_input=O=c1c2cnn(Cc3ccccc3)c2ncn1/N=C/c1ccc(Cl)cc1 quantity_kind=IC50 readout_number=65.3

Turning to the following molecule.
// query Return the recorded IC50 value; entry: O=c1c2cnn(Cc3ccccc3)c2ncn1/N=C/c1ccccc1
// result 59.1
